Just for reference, the supplement of paper PMC6607015 is where these values come from.

test system: HeLa MZ; assay: filipin (cholesterol) integrated intensity within LBPA endosomes, Z-score; higher = more cholesterol in LBPA endosomes; conditions: compound concentration in added solution (µM; 5 µl added to 20 µl cells): 10; 18 h
Structures can show the parent of a compound that is named as a salt.
filipin (z-score) values, listed per item
Please give only the number in your answer, with no unit.

# annotated cases, reported filipin (z-score) shown
Molecule: Cc1nnc(NS(=O)(=O)c2ccc(N)cc2)s1 [Sulfamethizole]
Tested On: HeLa MZ
filipin (z-score): -0.463
--
Molecule: CN1[C@@H]2CC[C@H]1C[C@@H](OC(=O)c1c[nH]c3ccccc13)C2 [Tropisetron HCl]
Tested On: HeLa MZ
filipin (z-score): 0.0878
--
Molecule: CCCc1nn(C)c2c(=O)[nH]c(-c3cc(S(=O)(=O)N4CCN(C)CC4)ccc3OCC)nc12 [Sildenafil]
Tested On: HeLa MZ
filipin (z-score): -0.257

Now for another entry.
Name the reported filipin (z-score) value associated with the molecule COc1ccc(CCN(C)CCCC(C#N)(c2ccc(OC)c(OC)c2)C(C)C)cc1OC (stereo not drawn) [Verapamil hydrochloride]
1.49

* * *

system: A431; test: whole-cell filipin (free cholesterol) integrated intensity, Z-score; higher = more cholesterol staining; details: compound concentration in added solution (µM; 5 µl added to 20 µl cells): 10; 18 h
Structures can show the parent of a compound that is named as a salt.
whole-cell filipin (z-score) values, listed per item
Please give only the number in your answer, with no unit.

# annotated cases, reported whole-cell filipin (z-score) shown
Compound: CC[C@H](C)C(=O)O[C@H]1C[C@H](O)C=C2C=C[C@H](C)[C@H](CC[C@@H](O)C[C@@H](O)CC(=O)O)[C@H]21
Tested On: A431
whole-cell filipin (z-score): -0.289
//
Compound: CC(COc1ccccc1)N(CCCl)Cc1ccccc1 (centres undefined) [Phenoxybenzamine hydrochloride]
Tested On: A431
whole-cell filipin (z-score): -0.105
//
Compound: C[C@@H]1C[C@H]2[C@@H]3C[C@H](F)C4=CC(=O)C=C[C@]4(C)[C@@]3(Cl)[C@@H](O)C[C@]2(C)[C@H]1C(=O)COC(=O)C(C)(C)C [Clocortolone pivalate]
Tested On: A431
whole-cell filipin (z-score): -0.183

Now for another entry.
What measured whole-cell filipin (z-score) is associated with CN(C)CCC(c1ccccc1)c1ccccn1 (centres undefined) [Pheniramine maleate] on A431?
-0.745

* * *

tested on: A431; experiment: LBPA endosome anti-LBPA integrated intensity (sum per cell), Z-score; higher = more LBPA staining; details: compound concentration in added solution (µM; 5 µl added to 20 µl cells): 10; 18 h
Where a name gives a salt, the structure may show the parent alone.
LBPA endosome anti-LBPA integrated intensity (z-score) values, listed per item
Please give only the number in your answer, with no unit.

Compound: COc1ccccc1N1CCN(CCCNc2cc(=O)n(C)c(=O)n2C)CC1 [Urapidil hydrochloride]
Val: -0.297

Name the reported LBPA endosome anti-LBPA integrated intensity (z-score) value associated with the compound Cc1ccc(C(=O)c2ccc(CC(=O)O)n2C)cc1 [Tolmetin sodium salt dihydrate]
-0.35

Name the reported LBPA endosome anti-LBPA integrated intensity (z-score) value associated with the compound NC[C@@H]1O[C@@H](O[C@H]2[C@H](O)[C@@H](O[C@H]3O[C@H](CO)[C@@H](O)[C@H](N)[C@H]3O)[C@H](N)C[C@@H]2N)[C@@H](O)[C@H](O)[C@H]1O [Kanamycin A sulfate]
-0.635

Name the reported LBPA endosome anti-LBPA integrated intensity (z-score) value associated with the compound N/C(=N\C(=O)c1nc(Cl)c(N)nc1N)NCc1ccccc1 [Benzamil hydrochloride]
0.224

Name the reported LBPA endosome anti-LBPA integrated intensity (z-score) value associated with the compound CCOc1cc(CC(=O)N[C@@H](CC(C)C)c2ccccc2N2CCCCC2)ccc1C(=O)O [Repaglinide]
-0.598

Name the reported LBPA endosome anti-LBPA integrated intensity (z-score) value associated with the compound C(=C\c1ccccc1)/CN1CCN(C(c2ccccc2)c2ccccc2)CC1
-0.223

Name the reported LBPA endosome anti-LBPA integrated intensity (z-score) value associated with the compound COc1ccc2cc([C@@H](C)C(=O)O)ccc2c1 [(R) -Naproxen sodium salt]
-0.646

Name the reported LBPA endosome anti-LBPA integrated intensity (z-score) value associated with the compound CN(C)CCC(c1ccccc1)c1ccccn1 (stereo not drawn) [Pheniramine maleate]
-0.513

Name the reported LBPA endosome anti-LBPA integrated intensity (z-score) value associated with the compound CC(C)NCC(O)COc1cccc2[nH]ccc12 (stereo not drawn)
-0.195

Name the reported LBPA endosome anti-LBPA integrated intensity (z-score) value associated with the compound CN(C)CCC(c1ccc(Br)cc1)c1ccccn1 (stereo not drawn) [Brompheniramine maleate]
-0.686

Name the reported LBPA endosome anti-LBPA integrated intensity (z-score) value associated with the compound CN1CCc2cccc3c2[C@H]1Cc1ccc(O)c(O)c1-3 [R(-) Apomorphine hydrochloride hemihydrate]
2.19

Name the reported LBPA endosome anti-LBPA integrated intensity (z-score) value associated with the compound CC(=O)Nc1ccc(OCC(O)CNC(C)C)cc1 (stereo not drawn)
-0.578

Name the reported LBPA endosome anti-LBPA integrated intensity (z-score) value associated with the compound COC1=C(OC)C(=O)C(CCCCCCCCCCO)=C(C)C1=O
-0.691

Name the reported LBPA endosome anti-LBPA integrated intensity (z-score) value associated with the compound CN1CCN(c2c(F)cc3c(=O)c(C(=O)O)cn(CCF)c3c2F)CC1
-0.492

Name the reported LBPA endosome anti-LBPA integrated intensity (z-score) value associated with the compound CC(=O)O[C@]1(C(C)=O)CC[C@H]2[C@@H]3C=C(C)C4=CC(=O)CC[C@@H]4[C@H]3CC[C@@]21C [Nomegestrol acetate]
0.292

Name the reported LBPA endosome anti-LBPA integrated intensity (z-score) value associated with the compound CCN(CC)CCOC(=O)C1(c2ccc([N+](=O)[O-])cc2)CCCC1 [Nitrocaramiphen hydrochloride]
-0.558

Name the reported LBPA endosome anti-LBPA integrated intensity (z-score) value associated with the compound N[C@@H](C(=O)N[C@@H]1C(=O)N2C(C(=O)O)=C(Cl)CS[C@H]12)c1ccccc1 [Cefaclor hydrate]
-0.551

* * *

LBPA endosome anti-LBPA integrated intensity (z-score) values, listed per item
test system: HeLa MZ; assay: LBPA endosome anti-LBPA integrated intensity (sum per cell), Z-score; higher = more LBPA staining; details: compound concentration in added solution (µM; 5 µl added to 20 µl cells): 10; 18 h
Counter-ions that a name gives are not always drawn.
Please give only the number in your answer, with no unit.

# annotated cases, reported LBPA endosome anti-LBPA integrated intensity (z-score) shown
Compound: CCCOc1ccc(C(=O)OCCN(CC)CC)cc1N [Proparacaine hydrochloride]
Val: 0.26
--
Compound: CNC(=C[N+](=O)[O-])NCCSCc1ccc(CN(C)C)o1 [Ranitidine hydrochloride]
Val: 0.0515
--
Compound: O=C(O)c1ccccc1C(=O)Nc1ccc(S(=O)(=O)Nc2nccs2)cc1
Val: -0.249

Now for another entry.
Name the reported LBPA endosome anti-LBPA integrated intensity (z-score) value associated with the compound Nc1nc(F)nc2c1ncn2[C@@H]1O[C@H](CO)[C@@H](O)[C@@H]1O
1.27

* * *

tested on: A431; test: filipin (cholesterol) integrated intensity within LBPA endosomes, Z-score; higher = more cholesterol in LBPA endosomes; details: compound concentration in added solution (µM; 5 µl added to 20 µl cells): 10; 18 h
Where a name gives a salt, the structure may show the parent alone.
filipin (z-score) values, listed per item
Please give only the number in your answer, with no unit.

Compound: CNCCc1ccccn1 [Betahistine mesylate]
filipin (z-score): -0.457

Name the reported filipin (z-score) value associated with the compound Clc1ccc(C(c2ccccc2Cl)C(Cl)Cl)cc1 (stereo unspecified)
-0.511

Name the reported filipin (z-score) value associated with the compound CS(=O)(=O)c1ccc(C2=C(c3ccccc3)C(=O)OC2)cc1
-0.59

* * *

test system: HeLa MZ; assay: whole-cell filipin (free cholesterol) integrated intensity, Z-score; higher = more cholesterol staining; conditions: compound concentration in added solution (µM; 5 µl added to 20 µl cells): 10; 18 h
Counter-ions that a name gives are not always drawn.
Mark yes for reported whole-cell filipin (z-score) of -0.4 or greater; mark no for anything smaller.

Molecule: CC(=O)CC(c1ccccc1)c1c(O)c2ccccc2oc1=O (stereo not drawn)
Discrete Label: yes

Has Cc1c(N(C)CS(=O)(=O)O)c(=O)n(-c2ccccc2)n1C a recorded whole-cell filipin (z-score) greater than or equal to -0.4?
yes

Has CO/N=C(\C(=O)N[C@@H]1C(=O)N2C(C(=O)O)=C(C[N+]3(C)CCCC3)CS[C@H]12)c1csc(N)n1 [Cefepime hydrochloride] a recorded whole-cell filipin (z-score) greater than or equal to -0.4?
yes

Has O=C(c1ccccc1)c1ccc2n1CCC2C(=O)O (stereo not drawn) a recorded whole-cell filipin (z-score) greater than or equal to -0.4?
no

Has CC(C)(Oc1ccc(Cl)cc1)C(=O)O a recorded whole-cell filipin (z-score) greater than or equal to -0.4?
no
